- TARGET: T1, human PRLR on cells (endogenous on T47D, T47D#11, MCF7); introduced in HEK293/hPRLR/STAT5-Luc, 293/hPRLR, … (human, UniProt P16471 25-622)
- T1 construct: no tag is stated for these lines; also called prolactin receptor
- T1 sequence: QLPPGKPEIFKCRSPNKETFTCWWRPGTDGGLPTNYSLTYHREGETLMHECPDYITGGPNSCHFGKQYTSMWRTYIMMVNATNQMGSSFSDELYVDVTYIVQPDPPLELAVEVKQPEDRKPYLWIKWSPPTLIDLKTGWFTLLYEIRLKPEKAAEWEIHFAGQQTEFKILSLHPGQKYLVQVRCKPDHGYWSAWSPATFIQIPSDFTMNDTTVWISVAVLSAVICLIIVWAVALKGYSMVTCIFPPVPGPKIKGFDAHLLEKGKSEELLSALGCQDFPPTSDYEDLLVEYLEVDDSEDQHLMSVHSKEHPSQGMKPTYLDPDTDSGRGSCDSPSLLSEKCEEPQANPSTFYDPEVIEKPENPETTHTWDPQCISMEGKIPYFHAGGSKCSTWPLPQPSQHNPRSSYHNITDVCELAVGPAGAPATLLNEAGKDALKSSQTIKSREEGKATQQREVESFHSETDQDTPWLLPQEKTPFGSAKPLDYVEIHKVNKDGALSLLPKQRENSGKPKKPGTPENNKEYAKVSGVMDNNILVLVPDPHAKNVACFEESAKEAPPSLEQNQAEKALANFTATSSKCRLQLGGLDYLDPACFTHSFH
- ASSAY: imaging of alexa488 intensity on T47D cells
Each entry below carries its recorded % Total Binding relative to Control I.
Quick reminder: number only, in %, skip the unit.

Consider the following illustrative entries.
BINDER | % Total Binding relative to Control I (%)
H1H6967N (antibody, human IgG1, V domains shown, also called H2M6967N) VH: EVQLVESGGDLVHPGRSLRLSCAASGFPFDEYAMHWVRQVPGKGLEWVSGISWSNNNIGYADSVKGRFTISRDNAKNSLYLQMNSLRPEDTAFYYCAKSGIFDSWGQGTLVTVSS VL: EIVMTQSPATLSVSPGERATLSCRASQSVSRDLAWYQQKPGQAPRLLIHGASTRATGIPARFSGSGSGAEFTLIISSLQSEDFAVYYCQQYNNWPLTFGGGTKVEIK | 159
H1H6801P (antibody, human IgG1, V domains shown, human IgG1 Fc (H1H)) VH: QVQLQQSGPGLVKPSQTLSLTCVISGDSVSSNTAWNWVRQSPSRGLEWLGRTYYRSKWYNDYAVSVKSRITINPDTSKNQFSLLMNSVTPEDTAVYYCARVVRGLNYFDYWGQGTLVTVSS VL: DIVMTQSPDSLAVSLGERATINCKSSQSVLYNSNNKNYLAWYQQKPGQPPKLLIYWSSSRESGVPDRFSGSGSGTDFTLTISGLQAEDVAIYYCQQYSTIPYTFGQGTKLEIK | 156

Input: GET /values?readout=% Total Binding relative to Control I&item= H1H6953N (antibody, human IgG1, V domains shown, also called H1M6953N) VH: EVQLLESGGGLVQPGGTLRLSCAASGFTFSAYAMSWVRQAPGKGLEWVSSINVRAGDTYYADSVKGRFTISRDNSKNTLFLLMNSLRAEDTAAYYCAKARYSSNWGFDFWGQGTLVTVSS VL: DIVMTQSPDSLTVSLGARTTINCQSSQTILHSSNNHNYLAWYQQKPGLPPKLLIYWSSTRESGVPDRFSGSGSGTDFTLTISSLQAEDVAIYYCQQYSNTPYTFGQGTKLEIN
Output: 164

Origin of measurements: patent US20180185504A1
